Recorded IC50, one value per entry.
- TESTED_SYSTEM: Bcl-2-like protein 1 (Homo sapiens, UniProt Q07817)
- Sequence (Q07817 whole entry): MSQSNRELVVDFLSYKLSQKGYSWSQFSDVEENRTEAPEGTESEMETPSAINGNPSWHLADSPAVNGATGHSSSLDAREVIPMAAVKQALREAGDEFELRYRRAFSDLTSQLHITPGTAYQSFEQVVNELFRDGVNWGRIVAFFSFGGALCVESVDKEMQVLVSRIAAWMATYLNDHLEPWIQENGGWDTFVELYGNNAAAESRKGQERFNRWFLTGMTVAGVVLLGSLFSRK

>  <SMILES_TEXT>
O=C(NS(=O)(=O)c1ccc(N[C@H](CCN2CCOCC2)CSc2ccccc2)c(S(=O)(=O)C(F)(F)F)c1)c1ccc(N2CCN(Cc3cccnc3-c3ccc(Cl)cc3)CC2)cc1

>  <TESTED_SYSTEM>
Bcl-2-like protein 1 (Homo sapiens, UniProt Q07817)

>  <READOUT_RELATION>
=

>  <IC50, nM>
25

$$$$
>  <SMILES_TEXT>
CN(C)CCOc1ccc(-c2ccc(Cl)cc2)c(CN2CCN(c3ccc(C(=O)NS(=O)(=O)c4ccc(N[C@H](CCN5CCOCC5)CSc5ccccc5)c(S(=O)(=O)C(F)(F)F)c4)cc3)CC2)c1

>  <TESTED_SYSTEM>
Bcl-2-like protein 1 (Homo sapiens, UniProt Q07817)

>  <READOUT_RELATION>
<

>  <IC50, nM>
10

$$$$
>  <SMILES_TEXT>
CCOC(=O)C1(Cc2ccccc2-c2ccc(Cl)cc2)CCN(c2ccc(C(=O)NS(=O)(=O)c3ccc(N[C@H](CCN4CCOCC4)CSc4ccccc4)c(S(=O)(=O)C(F)(F)F)c3)cc2)CC1

>  <TESTED_SYSTEM>
Bcl-2-like protein 1 (Homo sapiens, UniProt Q07817)

>  <READOUT_RELATION>
=

>  <IC50, nM>
30

$$$$

###

- Tested on: RS4-11
- TEST_DESCRIPTION: Induction of apoptosis in human RS4:11 cells overexpressing BCL-2 assessed as caspase 3/7 activation after 6 hrs by quantitative luminescence assay
- Format: functional, cell-based
- TEST_SETTINGS: RS4-11, 6 h
pEC50: −log10 of the molar value.

>  <SMILES_TEXT>
N=C(NS(=O)(=O)c1ccc(N[C@H](CCN2CCOCC2)CSc2ccccc2)c(S(=O)(=O)C(F)(F)F)c1)c1ccc(N2CCN(Cc3ccccc3-c3ccc(Cl)cc3)CC2)cc1

>  <READOUT_RELATION>
<

>  <pEC50>
5.50

$$$$
>  <SMILES_TEXT>
O=C(NS(=O)(=O)c1ccc(N[C@H](CCN2CCOCC2)CSc2ccccc2)c(S(=O)(=O)C(F)(F)F)c1)c1ccc(N2CCN(Cc3ccccc3-c3ncc(Cl)cn3)CC2)cc1

>  <READOUT_RELATION>
=

>  <pEC50>
5.40

$$$$
>  <SMILES_TEXT>
O=C(NS(=O)(=O)c1ccc(N[C@H](CCN2CCOCC2)CSc2ccccc2)c(S(=O)(=O)C(F)(F)F)c1)c1ccc(N2CCC(Sc3ccccc3-c3ccc(Cl)cc3)CC2)cc1

>  <READOUT_RELATION>
<

>  <pEC50>
6.29

$$$$
>  <SMILES_TEXT>
O=C(NS(=O)(=O)c1ccc(N[C@H](CCN2CCOCC2)CSc2ccccc2)c(S(=O)(=O)C(F)(F)F)c1)c1ccc(N2CCP(=O)(Cc3ccccc3-c3ccc(Cl)cc3)CC2)cc1

>  <READOUT_RELATION>
<

>  <pEC50>
5.96

$$$$
>  <SMILES_TEXT>
CCOC(=O)C1(Cc2ccccc2-c2ccc(Cl)cc2)CCN(c2ccc(C(=O)NS(=O)(=O)c3ccc(N[C@H](CCN4CCOCC4)CSc4ccccc4)c(S(=O)(=O)C(F)(F)F)c3)cc2)CC1

>  <READOUT_RELATION>
=

>  <pEC50>
5.75

$$$$
>  <SMILES_TEXT>
O=C(NS(=O)(=O)c1ccc(N[C@H](CCN2CCOCC2)CSc2ccccc2)c(S(=O)(=O)C(F)(F)F)c1)c1ccc(N2CCN(Cc3cccnc3-c3ccc(Cl)cc3)CC2)cc1

>  <READOUT_RELATION>
=

>  <pEC50>
6.43

$$$$
>  <SMILES_TEXT>
O=C(NS(=O)(=O)c1ccc(N[C@H](CCN2CCOCC2)CSc2ccccc2)c(S(=O)(=O)C(F)(F)F)c1)c1ccc(N2CCC(Oc3ccccc3-c3ccc(Cl)cc3)CC2)cc1

>  <READOUT_RELATION>
<

>  <pEC50>
6.04

$$$$
>  <SMILES_TEXT>
N#CC1(Cc2ccccc2-c2ccc(Cl)cc2)CCN(c2ccc(C(=O)NS(=O)(=O)c3ccc(N[C@H](CCN4CCOCC4)CSc4ccccc4)c(S(=O)(=O)C(F)(F)F)c3)cc2)CC1

>  <READOUT_RELATION>
=

>  <pEC50>
6.30

$$$$
>  <SMILES_TEXT>
Cn1ncc(CN2CCN(c3ccc(C(=O)NS(=O)(=O)c4ccc(N[C@H](CCN5CCOCC5)CSc5ccccc5)c(S(=O)(=O)C(F)(F)F)c4)cc3)CC2)c1-c1ccc(Cl)cc1

>  <READOUT_RELATION>
=

>  <pEC50>
6.38

$$$$
>  <SMILES_TEXT>
O=C(NS(=O)(=O)c1ccc(N[C@H](CCN2CCOCC2)CSc2ccccc2)c(S(=O)(=O)C(F)(F)F)c1)c1ccc(N2CCC(S(=O)(=O)c3ccccc3-c3ccc(Cl)cc3)CC2)cc1

>  <READOUT_RELATION>
<

>  <pEC50>
5.96

$$$$
>  <SMILES_TEXT>
O=C(NS(=O)(=O)c1ccc(N[C@H](CCN2CCOCC2)CSc2ccccc2)c(S(=O)(=O)C(F)(F)F)c1)c1ccc(N2CCC([S@@+]([O-])c3ccccc3-c3ccc(Cl)cc3)CC2)cc1

>  <READOUT_RELATION>
=

>  <pEC50>
7.05

$$$$
>  <SMILES_TEXT>
O=C(NS(=O)(=O)c1ccc(N[C@H](CCN2CCOCC2)CSc2ccccc2)c(S(=O)(=O)C(F)(F)F)c1)c1csc(N2CCN(Cc3ccccc3-c3ccc(Cl)cc3)CC2)n1

>  <READOUT_RELATION>
=

>  <pEC50>
6.41

$$$$
>  <SMILES_TEXT>
CN(C)C(=O)COc1ccc(-c2ccc(Cl)cc2)c(CN2CCN(c3ccc(C(=O)NS(=O)(=O)c4ccc(N[C@H](CCN5CCOCC5)CSc5ccccc5)c(S(=O)(=O)C(F)(F)F)c4)cc3)CC2)c1

>  <READOUT_RELATION>
=

>  <pEC50>
7.29

$$$$
>  <SMILES_TEXT>
O=C(NS(=O)(=O)c1ccc(N[C@H](CCN2CCOCC2)CSc2ccccc2)c(S(=O)(=O)C(F)(F)F)c1)c1ccc(N2CCC(C(=O)c3ccccc3-c3ccc(Cl)cc3)CC2)cc1

>  <READOUT_RELATION>
<

>  <pEC50>
5.96

$$$$
>  <SMILES_TEXT>
O=C(NS(=O)(=O)c1ccc(N[C@H](CCN2CCOCC2)CSc2ccccc2)c(S(=O)(=O)C(F)(F)F)c1)c1ccc(N2CCN(Cc3cn[nH]c3-c3ccc(Cl)cc3)CC2)cc1

>  <READOUT_RELATION>
<

>  <pEC50>
5.00

$$$$

###

- TEST_DESCRIPTION: Equilibrium solubility of the compound at pH 7.4
- Format: physicochemical
- TEST_SETTINGS: buffer

>  <SMILES_TEXT>
CN(C)CCOc1cccc(-c2ccc(Cl)cc2)c1CN1CCN(c2ccc(C(=O)NS(=O)(=O)c3ccc(N[C@H](CCN4CCOCC4)CSc4ccccc4)c(S(=O)(=O)C(F)(F)F)c3)cc2)CC1

>  <solubility thermodynamic>
< 1 µM

$$$$
>  <SMILES_TEXT>
O=C(NS(=O)(=O)c1ccc(N[C@H](CCN2CCOCC2)CSc2ccccc2)c(S(=O)(=O)C(F)(F)F)c1)c1ccc(N2CC3(CN(Cc4ccccc4-c4ccc(Cl)cc4)C3)C2)cc1

>  <solubility thermodynamic>
< 1 µM

$$$$
>  <SMILES_TEXT>
CN(C)CCOc1ccc(-c2ccc(Cl)cc2)c(CN2CCN(c3ccc(C(=O)NS(=O)(=O)c4ccc(N[C@H](CCN5CCOCC5)CSc5ccccc5)c(S(=O)(=O)C(F)(F)F)c4)cc3)CC2)c1

>  <solubility thermodynamic>
< 1 µM

$$$$
>  <SMILES_TEXT>
CCOC(=O)C1(Cc2ccccc2-c2ccc(Cl)cc2)CCN(c2ccc(C(=O)NS(=O)(=O)c3ccc(N[C@H](CCN4CCOCC4)CSc4ccccc4)c(S(=O)(=O)C(F)(F)F)c3)cc2)CC1

>  <solubility thermodynamic>
< 1.5 µM

$$$$
